molecular target: CECR2 (Homo sapiens, UniProt Q9BXF3); construct: 424-538 was cloned, expressed, and purified to homogeneity; Flag; made in house; assay: CECR2 TR-FRET Binding Assay; conditions: read-out: IC50
Sequence (Q9BXF3 424-538 limits assumed): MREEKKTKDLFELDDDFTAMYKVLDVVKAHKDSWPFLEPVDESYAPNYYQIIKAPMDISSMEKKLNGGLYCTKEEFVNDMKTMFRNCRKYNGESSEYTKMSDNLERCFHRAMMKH
pIC50: −log10 of the molar value.
Observation Type: pIC50

Solved cases below.
>>> print(df.to_string())
                                   compound  observation_type  observed
0  Cc1cccc(NC(=O)c2cn(C)c(=O)c3[nH]ccc23)c1 [Example 80]             pIC50      6.29
1  CN(C(=O)c1cn(C)c(=O)c2[nH]ccc12)C1CCN(c2ccncn2)CC1 [Example 139]             pIC50      6.62
2  C=CCn1cc(C(=O)N(C)C2C3CN(c4ccncn4)CC32)c2cc[nH]c2c1=O (stereo not drawn) [Example 251]             pIC50      5.21
3  Cc1cccc(CN2CCC(CN(C)C(=O)c3cn(C)c(=O)c4[nH]ccc34)CC2)c1 [Example 204]             pIC50      5.96
4  CN(C)C1CCC(NC(=O)c2cn(C)c(=O)c3[nH]ccc23)CC1 (stereo not drawn) [Example 21]             pIC50      6.05
5  CN(C(=O)c1cn(C)c(=O)c2[nH]ccc12)C1CCN(c2ncc(C#N)cn2)CC1 [Example 141]             pIC50      6.41
6  C=CCn1cc(C(=O)N2CCN(c3ccc(F)cc3)CC2C(N)=O)c2cc(C)[nH]c2c1=O (single isomer, unassigned) [Example 273]             pIC50      5.31
7  CC1CN(C(=O)c2cn(C)c(=O)c3[nH]ccc23)CCC1N(C)C (stereo not drawn) [Example 78]             pIC50      5.00

(a) C=CCn1cc(C(=O)N(C)C2CCN(c3cc(-c4ncccc4C)ncn3)CC2)c2cc(C)[nH]c2c1=O [Example 272]
(b) CN(C(=O)c1cn(C)c(=O)c2[nH]ccc12)C1CCN(Cc2ccccc2Cl)CC1 [Example 223]
Would you let me know which has the greater pIC50 value, a or b ? Reply briefly: the label of your chosen item. a
(a: 7.46, b: 6.01)

---

target: BRD4(BD1) (Homo sapiens); construct: 42-168 was cloned, expressed, and purified to; His; assay: BRD4 AlphaLisa Binding Assay
pIC50: −log10 of the molar value.
Observation Type: pIC50

>>> print(df.to_string())
                                   molecule  observed
0  C[C@@H](NC(=O)c1cn(C)c(=O)c2[nH]ccc12)c1ccccc1      5.42
1      Cn1cc(C(=O)NCC2CCOCC2)c2cc[nH]c2c1=O      4.77
2  CC(c1ccccc1)N(C)C(=O)c1cn(C)c(=O)c2[nH]ccc12 (stereo not drawn)      4.80
3  CC(C)c1cccc(N2CCC(N(C)C(=O)c3cn(C)c(=O)c4[nH]ccc34)CC2)c1      5.68

(I) COc1cccc(CN2CCC(N(C)C(=O)c3cn(C)c(=O)c4[nH]ccc34)CC2)c1
(II) Cn1cc(C(=O)NC2CCCCc3ccccc32)c2cc[nH]c2c1=O (stereo not drawn)
(III) COc1ccc(CNC(=O)c2cn(C)c(=O)c3[nH]ccc23)cc1
(IV) CN(CC1CCN(Cc2ccccc2Cl)CC1)C(=O)c1cn(C)c(=O)c2[nH]ccc12
# rank by pIC50, ascending (min first) The response must list the labels following the requested ordering. I, II, III, IV
(I: 4.80, II: 5.28, III: 5.57, IV: 5.96)

(1) Cn1cc(C(=O)N2CCC(C#N)CC2)c2cc[nH]c2c1=O
(2) CC(NC(=O)c1cn(C)c(=O)c2[nH]ccc12)c1ccccc1F (stereo not drawn)
Field: lower recorded pIC50 (choose 1 or 2 ) Reply briefly: the label of your chosen item. 1

(I) Cn1cc(C(=O)N2CCC(Cc3cccnc3)CC2)c2cc[nH]c2c1=O
(II) CN(C(=O)c1cn(C)c(=O)c2[nH]ccc12)C1CCN(Cc2ccccc2C#N)CC1
Field: lower recorded pIC50 (choose I or II ) Reply briefly: the label of your chosen item. I

---

biological target: BRD9 (Homo sapiens, UniProt Q9H8M2)
Sequence (Q9H8M2 134-239 limits assumed): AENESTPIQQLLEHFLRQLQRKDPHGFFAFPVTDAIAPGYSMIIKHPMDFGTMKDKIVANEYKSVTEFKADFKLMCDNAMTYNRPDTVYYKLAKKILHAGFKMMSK
Observation Type: IC50 (µM)

In [3]: df
Out[3]:
                                   compound                  experimental_target  observation_type  observed
0  CCCCn1cc(C(=O)NCC2CCN(C)CC2)c2cc[nH]c2c1=O [Example 248]  BRD9 (Homo sapiens, UniProt Q9H8M2)              IC50       3.3

(I) Cn1cc(C(=O)NCC2Cc3ccccc3O2)c2cc[nH]c2c1=O (stereo not drawn) [Example 110]
(II) Cn1cc(C(=O)N2CCNc3ccccc3C2)c2cc[nH]c2c1=O [Example 88]
Field: lower recorded IC50 (choose I or II ) Reply briefly: the label of your chosen item. I

(I) CN1CCN(C(=O)c2cn(C)c(=O)c3[nH]ccc23)CC1 [Example 38]
(II) CN(C)CCNC(=O)c1cn(C)c(=O)c2[nH]ccc12 [Example 1]
(III) C/C=C/Cn1cc(C(=O)NCc2ccccc2)c2cc[nH]c2c1=O [Example 260]
(IV) CC(NC(=O)c1cn(C)c(=O)c2[nH]ccc12)c1ccncc1 (stereo not drawn) [Example 115]
Rank by IC50 (largest to smallest). The response must list the labels following the requested ordering. I, II, IV, III
(I: 8 µM, II: 3 µM, IV: 0.64 µM, III: 0.18 µM)

(1) Cn1cc(C(=O)NC(C)(C)CN2CCOCC2)c2cc[nH]c2c1=O [Example 35]
(2) CN(C(=O)c1cn(C)c(=O)c2[nH]ccc12)C1CCN(Cc2ccccc2)C1 (stereo not drawn) [Example 22]
Would you let me know which has the greater IC50 value, 1 or 2 ? Reply briefly: the label of your chosen item. 1
(1: 11 µM, 2: 7.3 µM)

---

molecular target: CECR2 (Homo sapiens); construct: 424-538 was cloned, expressed, and purified to homogeneity; Flag; made in house; assay: CECR2 TR-FRET Binding Assay; conditions: read-out: IC50
pIC50: −log10 of the molar value.
Observation Type: pIC50

Solved cases below.
>>> print(df.to_string())
                                   compound  observed
0  CN(C)C1CCN(C(=O)c2cn(C)c(=O)c3[nH]ccc23)C1 (centres unmarked)      4.99
1  C=CCn1cc(C(=O)N(C)C2CCCc3c(F)cccc32)c2cc(C)[nH]c2c1=O (single isomer, unassigned)      7.39
2  CN(C(=O)c1cn(C)c(=O)c2[nH]ccc12)C1CCN(c2nccc(C(F)(F)F)n2)CC1      6.54
3  Cc1cccc(N2CCC(N(C)C(=O)c3cn(C)c(=O)c4[nH]ccc34)CC2)c1      6.00
4  CN1CCC(CN(C)C(=O)c2cn(C)c(=O)c3[nH]ccc23)CC1      5.70

(I) CN(C(=O)c1cn(C)c(=O)c2[nH]ccc12)C1CCN(c2ccccc2)CC1
(II) C=CCn1cc(C(=O)N(C)C2CCN(c3cc(-c4ccccn4)ncn3)CC2)c2cc(C)[nH]c2c1=O
Would you let me know which has the greater pIC50 value, I or II ? Reply briefly: the label of your chosen item. II
(II: 7.96, I: 6.00)

---

molecular target: TAF1-BD2 (Homo sapiens, UniProt P21675); assay: TAF1-BD2 TR-FRET Binding Assay; details: Assay: TAF-1
Sequence (P21675 1525-1656): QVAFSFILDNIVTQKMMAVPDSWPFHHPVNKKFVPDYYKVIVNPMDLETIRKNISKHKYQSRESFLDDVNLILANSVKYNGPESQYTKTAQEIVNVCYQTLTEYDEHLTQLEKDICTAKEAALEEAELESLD
pIC50: −log10 of the molar value.
Observation Type: pIC50

Solved cases below.
>>> print(df.to_string())
                                   compound                      experimental_target  observed
0  CC(C)N1CC2C(C1)C2NC(=O)c1cn(C)c(=O)c2[nH]ccc12 (centres unmarked)  TAF1-BD2 (Homo sapiens, UniProt P21675)      5.48
1  CN1CCC(CCNC(=O)c2cn(C)c(=O)c3[nH]ccc23)CC1  TAF1-BD2 (Homo sapiens, UniProt P21675)      6.16
2  Cn1cc(C(=O)NC2CCN(c3ncc(C#N)cn3)CC2)c2cc[nH]c2c1=O  TAF1-BD2 (Homo sapiens, UniProt P21675)      6.24

(A) Cn1cc(C(=O)NCC2CCCC2)c2cc[nH]c2c1=O
(B) Cn1cc(C(=O)N2CCC(c3cnccn3)CC2)c2cc[nH]c2c1=O
Would you let me know which has the greater pIC50 value, A or B ? Reply briefly: the label of your chosen item. A
